Origin of the recorded values: the supplement of paper PMC3334620

Each record here notes measured PBM E-score.
# assay.system: Gcr1 (UniProt P07261)
# Sequence: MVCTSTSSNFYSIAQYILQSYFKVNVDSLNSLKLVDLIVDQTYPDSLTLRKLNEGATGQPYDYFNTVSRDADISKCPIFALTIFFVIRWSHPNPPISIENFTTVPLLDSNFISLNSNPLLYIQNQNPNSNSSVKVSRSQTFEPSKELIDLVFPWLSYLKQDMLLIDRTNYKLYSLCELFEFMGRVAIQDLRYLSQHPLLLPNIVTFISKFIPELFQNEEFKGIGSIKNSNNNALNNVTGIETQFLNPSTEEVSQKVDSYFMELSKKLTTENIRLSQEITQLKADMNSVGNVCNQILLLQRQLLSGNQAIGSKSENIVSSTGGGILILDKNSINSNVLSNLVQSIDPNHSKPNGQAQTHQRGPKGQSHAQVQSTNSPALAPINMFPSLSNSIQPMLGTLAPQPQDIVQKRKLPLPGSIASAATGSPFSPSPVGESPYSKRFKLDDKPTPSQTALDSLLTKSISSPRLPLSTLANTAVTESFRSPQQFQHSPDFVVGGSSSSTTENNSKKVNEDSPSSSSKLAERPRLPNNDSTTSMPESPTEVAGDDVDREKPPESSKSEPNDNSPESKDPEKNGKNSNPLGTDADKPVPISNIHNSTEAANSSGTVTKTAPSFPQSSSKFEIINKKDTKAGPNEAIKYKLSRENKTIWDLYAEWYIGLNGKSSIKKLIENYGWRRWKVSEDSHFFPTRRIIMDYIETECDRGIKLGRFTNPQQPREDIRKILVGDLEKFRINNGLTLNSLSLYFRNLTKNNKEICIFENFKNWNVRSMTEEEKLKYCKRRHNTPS
# experiment.summary: PBM E-score (8-mer binding enrichment) (E-score (-0.5 to 0.5)); higher = stronger / more preferred TF binding
# test.conditions: protein concentration: 100 nM; construct: GST-full length
Whole data set: some 33,000 sequences, median “E-score (-0.5 to 0.5)” near -0.011, cut for the highest 2% near 0.28. For the sample, the highest values were picked, then their nearest neighbours and some sequences at random.

residues=AAGTGGAT val=0.136
residues=CGGGTTCA val=-0.204
residues=GAGTGGCA val=-0.0587
residues=CAGTGGAA val=0.244
residues=AGGCGTGA val=-0.191

API: the following record is the query input.
Enquiry: Gcr1 (UniProt P07261) / PBM E-score / "GCATCCAA" : value?
Return: 0.366
